TARGET_SYSTEM: Polyunsaturated fatty acid 5-lipoxygenase (Homo sapiens, UniProt P09917)
Sequence (P09917 whole entry): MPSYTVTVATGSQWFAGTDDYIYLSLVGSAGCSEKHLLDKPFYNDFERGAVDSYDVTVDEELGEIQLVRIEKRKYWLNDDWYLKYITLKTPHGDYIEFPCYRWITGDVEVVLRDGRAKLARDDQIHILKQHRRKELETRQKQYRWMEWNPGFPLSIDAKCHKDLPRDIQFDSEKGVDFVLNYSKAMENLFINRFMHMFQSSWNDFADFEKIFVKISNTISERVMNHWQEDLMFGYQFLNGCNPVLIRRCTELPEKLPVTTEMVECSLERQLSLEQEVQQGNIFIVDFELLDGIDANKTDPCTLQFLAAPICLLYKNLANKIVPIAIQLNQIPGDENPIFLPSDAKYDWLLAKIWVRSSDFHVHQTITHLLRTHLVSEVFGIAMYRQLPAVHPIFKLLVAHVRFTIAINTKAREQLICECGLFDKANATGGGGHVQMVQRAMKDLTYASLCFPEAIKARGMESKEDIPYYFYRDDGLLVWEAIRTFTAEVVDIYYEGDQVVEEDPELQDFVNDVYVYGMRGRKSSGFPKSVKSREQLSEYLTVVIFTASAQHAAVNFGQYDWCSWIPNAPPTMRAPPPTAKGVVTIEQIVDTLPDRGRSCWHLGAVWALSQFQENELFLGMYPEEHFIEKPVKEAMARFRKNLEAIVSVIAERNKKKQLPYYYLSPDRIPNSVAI
TEST_PROTOCOL: Inhibition of […] human PBML assessed as inhibition of A23187-induced LTB4 production preincubated for 15 mins measured after 15 mins by enzyme immunoassay
MEASURED_PARAMETER: pIC50
Remember the convention: pIC50 equals -log10 of concentration in molar.

Prompt: Query the reported pIC50 for Polyunsaturated fatty acid 5-lipoxygenase (Homo sapiens, UniProt P09917); item: CC(C)(C)c1ccc(S2=NS(=O)(=O)c3cc([N+](=O)[O-])ccc32)cc1 (stereo not given)
Completion: 6.52

Prompt: pIC50 of NS(=O)(=O)c1ccc2c(c1)S(=O)(=O)N=S2c1ccc(-c2ccccc2)cc1 (stereo not given) on Polyunsaturated fatty acid 5-lipoxygenase (Homo sapiens, UniProt P09917)?
Completion: 5.46

Prompt: Lab request: please report pIC50 under test system Polyunsaturated fatty acid 5-lipoxygenase (Homo sapiens, UniProt P09917) for Cc1ccc2c(c1)S(=O)(=O)N=S2c1ccc(Br)cc1 (stereo not given)
Completion: 5.22

Prompt: Item: O=[N+]([O-])c1ccc2c(c1)S(=O)(=O)N=S2c1ccc(C(F)(F)F)cc1 (stereo not given) Test system: Polyunsaturated fatty acid 5-lipoxygenase (Homo sapiens, UniProt P09917) Read-out: pIC50 Value: ?
Completion: 5.51

Prompt: Record COc1ccc(S2=NS(=O)(=O)c3cc([N+](=O)[O-])ccc32)cc1OC (stereo not given) : what is its pIC50 with Polyunsaturated fatty acid 5-lipoxygenase (Homo sapiens, UniProt P09917)?
Completion: 6.17

* * *

TARGET_SYSTEM: UniProtKB P09917
TEST_PROTOCOL: Inhibition of […] human PBML assessed as inhibition of A23187-induced LTB4 production preincubated for 15 mins measured after 15 mins by enzyme immunoassay
MEASURED_PARAMETER: pIC50
pIC50 is defined as minus the log10 of a concentration measured in mol/L.

Prompt: Bench note: what pIC50 did CC(C)c1ccc(S2=NS(=O)(=O)c3cc([N+](=O)[O-])ccc32)cc1 (centres undefined) show?
Completion: 6.44

Prompt: Suppose we examine the compound COc1ccc(S2=NS(=O)(=O)c3cc([N+](=O)[O-])ccc32)cc1 (centres undefined) ; what pIC50 value has been reported?
Completion: 6.46

Prompt: Any idea what pIC50 was measured for O=[N+]([O-])c1ccc2c(c1)S(=O)(=O)N=S2c1ccc(-c2ccccc2)cc1 (centres undefined) ?
Completion: 6.82

Prompt: Give its pIC50 value. Item: COC(=O)c1ccc2c(c1)S(=O)(=O)N=S2c1ccc(Br)cc1 (centres undefined)
Completion: 5.39

Prompt: What value of pIC50 has been recorded for this entry: NS(=O)(=O)c1cc2c(cc1Cl)S(c1ccc(Br)cc1)=NS2(=O)=O (centres undefined)
Completion: 4.59

Prompt: What measured pIC50 goes with COc1cc(OC)cc(OCCS2=NS(=O)(=O)c3cc([N+](=O)[O-])ccc32)c1 (centres undefined) ?
Completion: 5.43

Prompt: Quick check: pIC50 of NS(=O)(=O)c1ccc2c(c1)S(=O)(=O)N=S2c1ccc(Br)cc1 (centres undefined) ?
Completion: 4.04

Prompt: Fill blank: measured pIC50 of the compound CCc1ccc(S2=NS(=O)(=O)c3cc([N+](=O)[O-])ccc32)cc1 (centres undefined) is ____.
Completion: 6.74

Prompt: What measured pIC50 goes with CS(=O)(=O)c1ccc2c(c1)S(=O)(=O)N=S2c1ccc(Br)cc1 (centres undefined) ?
Completion: 4.87

* * *

TARGET_SYSTEM: Prostaglandin G/H synthase 2 (Homo sapiens) (UniProt P35354)
Sequence (whole entry): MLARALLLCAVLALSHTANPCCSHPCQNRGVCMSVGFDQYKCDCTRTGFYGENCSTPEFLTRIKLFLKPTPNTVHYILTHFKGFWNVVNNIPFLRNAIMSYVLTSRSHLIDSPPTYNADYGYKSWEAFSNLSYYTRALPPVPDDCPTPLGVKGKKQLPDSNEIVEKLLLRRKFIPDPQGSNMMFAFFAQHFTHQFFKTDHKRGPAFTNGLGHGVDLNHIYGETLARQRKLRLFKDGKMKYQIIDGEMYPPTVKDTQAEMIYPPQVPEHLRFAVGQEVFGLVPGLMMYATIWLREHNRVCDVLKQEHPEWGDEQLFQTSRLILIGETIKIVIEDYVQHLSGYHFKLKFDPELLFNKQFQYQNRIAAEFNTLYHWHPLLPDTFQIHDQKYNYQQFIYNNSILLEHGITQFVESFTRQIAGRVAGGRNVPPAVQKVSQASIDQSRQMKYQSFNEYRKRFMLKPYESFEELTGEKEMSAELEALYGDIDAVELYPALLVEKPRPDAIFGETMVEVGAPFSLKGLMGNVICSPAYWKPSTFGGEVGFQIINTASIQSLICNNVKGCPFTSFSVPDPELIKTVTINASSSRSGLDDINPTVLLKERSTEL
TEST_PROTOCOL: Inhibition of human recombinant COX2 expressed in Sf21 cells assessed as conversion of arachidonic acid to PGE2 at 10 uM preincubated for 15 mins measured after 5 mins by enzyme immunoassay
Activity calls are given as the source filed them. The calls are words filed in the database; no cut-off is given here.
MEASURED_PARAMETER: inhibition

Record excerpt, results attached:
COc1ccc(S2=NS(=O)(=O)c3ccc(S(N)(=O)=O)cc32)cc1OC (configuration not stated)    6%
Cc1ccc(C2=NS(=O)(=O)c3ccccc32)cc1    16%
NS(=O)(=O)c1ccc2c(c1)S(c1ccc(Cl)cc1)=NS2(=O)=O (configuration not stated)    inactive
CC(C)c1ccc(S2=NS(=O)(=O)c3ccc(S(N)(=O)=O)cc32)cc1 (configuration not stated)    10%

Prompt: Look up inhibition: Cc1ccc2c(c1)S(=O)(=O)N=S2c1ccc(Br)cc1 (configuration not stated)
Completion: 14%

Prompt: Fill blank: measured inhibition of the compound CCc1ccc(S2=NS(=O)(=O)c3ccc(S(N)(=O)=O)cc32)cc1 (configuration not stated) is ____.
Completion: inactive

Prompt: Item Cc1ccc(S2=NS(=O)(=O)c3ccc(S(N)(=O)=O)cc32)c(C)c1 (configuration not stated) has what recorded inhibition?
Completion: inactive

Prompt: Fill blank: measured inhibition of the compound NS(=O)(=O)c1ccc2c(c1)S(c1ccc(C(F)(F)F)cc1)=NS2(=O)=O (configuration not stated) is ____.
Completion: inactive

Prompt: Look at this compound and give its reported inhibition. O=[N+]([O-])c1ccc2c(c1)S(=O)(=O)N=S2c1ccncc1 (configuration not stated)
Completion: 15%

Prompt: Field request: inhibition | item: NS(=O)(=O)c1ccc2c(c1)S(c1cccc(Br)c1)=NS2(=O)=O (configuration not stated)
Completion: 7%

Prompt: Which inhibition is reported for this compound? CC(C)(C)c1ccc(S2=NS(=O)(=O)c3ccc(S(N)(=O)=O)cc32)cc1 (configuration not stated)
Completion: inactive

* * *

TARGET_SYSTEM: Polyunsaturated fatty acid 5-lipoxygenase (Homo sapiens) (UniProt P09917)
Sequence (P09917 whole entry): as the sequence (P09917 whole entry) above
TEST_PROTOCOL: Inhibition of […] human 5-LOX in human PBML assessed as inhibition of A23187-induced LTB4 production at 10 uM preincubated for 15 mins measured after 15 mins by enzyme immunoassay
Calls of active or inactive are those of the source. No cut-off for these calls is given here.
MEASURED_PARAMETER: inhibition

Worked examples follow.
Cc1ccc(S2=NS(=O)(=O)c3ccc(S(N)(=O)=O)cc32)cc1C (configuration not stated)    inactive
CC(C)(C)c1ccc(S2=NS(=O)(=O)c3cc(S(N)(=O)=O)ccc32)cc1 (configuration not stated)    23%
COc1ccc(S2=NS(=O)(=O)c3ccc(S(N)(=O)=O)cc32)cc1OC (configuration not stated)    inactive
NS(=O)(=O)c1ccc2c(c1)S(c1ccc(Cl)c(Cl)c1)=NS2(=O)=O (configuration not stated)    inactive
CC(C)(C)c1ccc(S2=NS(=O)(=O)c3ccc(S(N)(=O)=O)cc32)cc1 (configuration not stated)    25%
NS(=O)(=O)c1ccc2c(c1)S(c1ccc(F)cc1F)=NS2(=O)=O (configuration not stated)    inactive
CCc1ccc(S2=NS(=O)(=O)c3ccc(S(N)(=O)=O)cc32)cc1 (configuration not stated)    7%
NS(=O)(=O)c1ccc2c(c1)S(c1ccc(C(F)(F)F)cc1)=NS2(=O)=O (configuration not stated)    37%
NC(=O)c1ccc2c(c1)S(=O)(=O)N=S2c1ccc(Br)cc1 (configuration not stated)    15%
COc1ccc(S2=NS(=O)(=O)c3ccc(S(N)(=O)=O)cc32)cc1 (configuration not stated)    21%

Prompt: What does the record list as inhibition for NS(=O)(=O)c1ccc2c(c1)S(c1ccc(Cl)cc1Cl)=NS2(=O)=O (configuration not stated) ?
Completion: inactive

Prompt: Query (compound): CCc1ccc(C2=NS(=O)(=O)c3cc(S(N)(=O)=O)ccc32)cc1 ; field requested: inhibition
Completion: 8%

Prompt: Quick one: inhibition for O=C(O)c1ccc2c(c1)S(=O)(=O)N=S2c1ccc(Br)cc1 (configuration not stated) ?
Completion: 2%

Where do these numbers come from? They come from ChEMBL document CHEMBL1914427.
